Collected GI50 values appear next to each entry.
- Test system: SF-539
- Test method notes: NCI tumour cell line growth inhibition, 48 h
The source made the active and inactive calls. Cut-off read from the data, not from the text of the source: active = GI50 up to about 1.1 µM and inactive = higher.

Form: item Cc1nc2c(nc1C)-c1c(c3c(n1Cc1ccccc1)C(=O)CCC3)C(=O)C2=O ; test system SF-539; GI50: 2.33 µM (inactive)

Form: item Cc1cc(N(CCC#N)CCC#N)ccc1/N=N/c1cccc(Cl)c1 ; test system SF-539; GI50: > 100 µM (inactive)

----------
- System: OVCAR-4
- Test method notes: NCI tumour cell line growth inhibition, 48 h
Activity calls are given as the source filed them. Rule as the data show it: active = GI50 up to about 1.1 µM and inactive = higher.
Test readout: GI50

Past entries and their recorded results:
• Cc1c(C(=O)O)n2c(C)nnc2c2ccccc12 = > 100 µM (inactive)
• N#CS/C(Cl)=C(/C(Cl)=C(Cl)Cl)[N+](=O)[O-] = 48.3 µM (inactive)

Kindly consider the entry below.
For this molecule ( CC(C)(C)c1cc(C(C)(C)C)c2sc(=O)oc2c1O ), measured GI50 is 13.6 µM (inactive)

----------
- Test system: NCI-H226
- Test method notes: NCI tumour cell line growth inhibition, 48 h
Activity calls are given as the source filed them. Rule as the data show it: active = GI50 up to about 1.1 µM and inactive = higher.
Form entry, call: pick from active, inactive

# example entries with known answers
* Cc1c(N)nc([C@H](CC(N)=O)NC[C@H](N)C(N)=O)nc1C(=O)N[C@H](C(=O)N[C@H](C)[C@@H](O)[C@H](C)C(=O)N[C@H](C(=O)NCCc1nc(-c2nc(C(=O)NCCC[S+](C)C)cs2)cs1)[C@@H](C)O)C(OC1OC(CO)C(O)C(O)C1OC1OC(CO)C(O)C(OC(N)=O)C1O)c1c[nH]cn1 (stereo not given in full) | active
* CCOc1cc2c(C(=O)CC)c(O)ccc2o1 | inactive
* COC(=N)/C(=C1\OC(=N)C(c2ccc(Cl)cc2)=C1O)c1ccc(Cl)cc1 | inactive
* COc1cc(C=C2N=C(c3ccccc3)N(n3c(-c4ccccc4)nc4ccccc4c3=O)C2=O)cc(OC)c1OC | inactive

Please find the next compound below.
Hey, what did the test say about COc1cc(C2c3cccc4cccc(c34)C3CCC(=O)N32)cc(OC)c1O (stereo not given) ?
inactive

----------
- Tested on: OVCAR-8
- Test method notes: NCI tumour cell line growth inhibition, 48 h
Calls of active or inactive are those of the source. No stated cut-off is given here; in the data, active = GI50 up to about 1.1 µM and inactive = higher.
Test readout: GI50

Past entries and their recorded results:
• O=C(CC(=O)c1ccccc1)C(=O)NC12CC3CC(CC(C3)C1)C2 = > 100 µM (inactive)
• O=c1c(C(c2cnc3ccccc3c2)c2c(O)oc3ccccc3c2=O)c(O)oc2ccccc12 = 33 µM (inactive)

Kindly consider the entry below.
Form: item CCC(C)c1cccc(C)c1NC(=O)C(=O)Cc1nc2ccccc2s1 (stereo not drawn) ; test system OVCAR-8; GI50: > 100 µM (inactive)

----------
- System: COLO 205
- Test method notes: NCI tumour cell line growth inhibition, 48 h
The source made the active and inactive calls. No stated cut-off is given here; in the data, active = GI50 up to about 1.1 µM and inactive = higher.
Test readout: GI50

Past entries and their recorded results:
• COc1ccc(C(O)(c2ccccc2)c2nccc3ccccc23)cc1 (stereo not drawn) = 4.47 µM (inactive)
• CCOC(=O)c1csc(-c2cn(C)c3c2C(=O)C(OC)=CC3=O)n1 = 26.9 µM (inactive)
• CC(C)=CCC/C(C)=C/CC/C(C)=C/CC/C=C(\C)CC/C=C(\C)CCC1SC1(C)C (stereo not drawn) = > 100 µM (inactive)
• O=C1OC(/C=C/c2ccccc2)C(=O)C1=O (stereo not drawn) = > 100 µM (inactive)
• COc1ccc(/C=N/c2nc3cc4sc(/N=C/c5ccc(OC)cc5)nc4cc3s2)cc1 = 3.66 µM (inactive)
• NC(Cc1ccc(OCc2ccccc2)cn1)C(=O)O (stereo not drawn) = > 100 µM (inactive)

For this molecule ( [BH3-][P+]1(CC[P@@+]([BH3-])(c2ccccc2)c2ccccc2OC)[C@@H](C)[C@@H](O)[C@H](O)[C@@H]1C (stereo partly drawn) ), measured GI50 is 17.8 µM (inactive)

For this molecule ( CNC(=S)N/N=C1\CC(c2ccccc2)Oc2ccccc21 (stereo not drawn) ), measured GI50 is > 100 µM (inactive)

----------
- System: XF498
- Test method notes: NCI tumour cell line growth inhibition, 48 h
The source made the active and inactive calls. Cut-off read from the data, not from the text of the source: active = GI50 up to about 1.1 µM and inactive = higher.
Test readout: GI50

- c1ccc(/N=C2\c3ccccc3C3=NCCCN32)cc1: 85.5 µM (inactive)
- Cc1cc(Cl)cc2c1NC(=O)C2=O.O=C(c1ccccc1)C(F)(F)F: 30.1 µM (inactive)

For this compound ( Cc1cc(C)nc(NS(=O)(=O)c2ccc(Nc3c4ccc(Cl)cc4nc4c(C(=O)Nc5ccc(S(N)(=O)=O)cc5)cccc34)cc2)n1 ), measured GI50 is 18.4 µM (inactive)

For this compound ( Cc1[nH]c(=O)nc(N/N=C/c2ccc(Cl)cc2)c1C(=O)Nc1ccc(Cl)cc1 ), measured GI50 is 4.68 µM (inactive)

----------
- System: CCRF-CEM
- Test method notes: NCI tumour cell line growth inhibition, 48 h
The source made the active and inactive calls. No stated cut-off is given here; in the data, active = GI50 up to about 1.1 µM and inactive = higher.
Form entry, call: pick from active, inactive

# example entries with known answers
* O=C1CCCC2=C1CC1=C(CCCC1=O)N2c1ccc(-c2ccccc2)cc1 | inactive
* CCNC(=O)N(CC)CN(CC)C(=O)NCC | inactive

Hey, what did the test say about CCN(CC)CCC1(C2CCCCC2)CCC(=O)NC1=O (stereo not drawn) ?
inactive

Hey, what did the test say about O=c1[nH]c(=O)n(COCCOCc2ccccc2)cc1Nc1ccccc1 ?
inactive

Hey, what did the test say about COc1cc(C=C2N=C(c3ccccc3)N(n3c(-c4ccccc4)nc4ccccc4c3=O)C2=O)cc(OC)c1OC ?
inactive

Hey, what did the test say about CCOC(=O)N1CCN(c2c(C)nc(C)nc2O)CC1 ?
inactive

Hey, what did the test say about CC(=O)c1sc2c(c1OC(=O)c1ccccc1)c(=O)n(-c1ccccc1)c(=S)n2-c1ccccc1 ?
inactive

----------
- Test system: OVCAR-4
- Test method notes: NCI tumour cell line growth inhibition, 48 h
Activity calls are given as the source filed them. Rule as the data show it: active = GI50 up to about 1.1 µM and inactive = higher.
Test readout: GI50

Past entries and their recorded results:
* COc1cc(/C=C/C(=O)O)ccc1C(=O)O/C=C/c1ccccc1 | > 100 µM (inactive)
* Cc1ccc2c(ccc(/C=C/c3ccc(O)c4ncccc34)[n+]2C)c1 | 5.09 µM (inactive)
* O=c1c2ncn(CCCl)c2n(-c2ccccc2)c(=S)n1-c1ccccc1 | > 100 µM (inactive)
* COC(=O)c1ccccc1C1CN=NC12Cc1cc(C)ccc1C2=O (stereo not given) | > 100 µM (inactive)
* O=C1CC(C2(O)C(=O)Nc3ccc([N+](=O)[O-])cc32)c2ccccc21 (stereo not given) | 20 µM (inactive)
* Cc1cccc(NC2=NC(=O)C(CC(=O)Nc3ccccc3Cl)S2)c1 (stereo not given) | > 100 µM (inactive)

For this compound ( Cc1nc2c(nc1C)-c1c(c3c(n1Cc1ccccc1)C(=O)CCC3)C(=O)C2=O ), measured GI50 is 1.81 µM (inactive)

For this compound ( COc1ccc2c(c1)[n+]([O-])c(-c1ccc(Cl)c(Cl)c1)c(N)[n+]2[O-] ), measured GI50 is 28.7 µM (inactive)

For this compound ( N#CC12CC3(CCC1CCC1(C2)OCCO1)OCCO3 (stereo not given) ), measured GI50 is > 100 µM (inactive)

For this compound ( O=C1O[B-](c2ccccc2)(c2ccccc2)[NH+]2CCCC12 (stereo not given) ), measured GI50 is > 100 µM (inactive)

For this compound ( CCCNC1=NC(C)=CSC(Nc2ccccc2)=C1C#N ), measured GI50 is > 100 µM (inactive)

For this compound ( CN(C)c1ccc(/C=c2\sc3nc4ccccc4n3c2=O)cc1 ), measured GI50 is > 100 µM (inactive)

For this compound ( CC(=O)/C(=C\c1ccccc1)C(=O)Nc1ccccc1 ), measured GI50 is > 100 µM (inactive)

For this compound ( O=C(O)C1OC1C(=O)O (stereo not given) ), measured GI50 is > 100 µM (inactive)

----------
Collected GI50 values appear next to each entry.
- Tested on: UACC-257
- Test method notes: NCI tumour cell line growth inhibition, 48 h
Calls of active or inactive are those of the source. No stated cut-off is given here; in the data, active = GI50 up to about 1.1 µM and inactive = higher.

For this compound ( COC(=N)/C(=C1\OC(=N)C(c2ccc(Cl)cc2)=C1O)c1ccc(Cl)cc1 ), measured GI50 is > 100 µM (inactive)

For this compound ( O=C(O)C1OC1C(=O)O (stereo not drawn) ), measured GI50 is > 100 µM (inactive)

For this compound ( Cc1cc(Cl)cc2c1NC(=O)C2=O.O=C(c1ccccc1)C(F)(F)F ), measured GI50 is 27.5 µM (inactive)

For this compound ( CCN(CC)CC(C(C)=O)C(c1ccccc1)c1c(O)c2ccccc2oc1=O (stereo not drawn) ), measured GI50 is 63.1 µM (inactive)

----------
- Tested on: ACHN
- Test method notes: NCI tumour cell line growth inhibition, 48 h
Activity calls are given as the source filed them. Rule as the data show it: active = GI50 up to about 1.1 µM and inactive = higher.
Form entry, call: pick from active, inactive

Hey, what did the test say about CCCCC1(OC(=O)CCC(=O)O)CCC2(CCC(C)C(C/C=C(C)/C=C/C(O)C(C)/C=C/C(=O)O)O2)OC1CC/C(C)=C/C(=O)O (centres undefined) ?
inactive

Hey, what did the test say about Cc1cc(OCc2nc(N)nc(N)c2-c2ccc(Cl)c(Cl)c2)ccc1[N+](=O)[O-] ?
active

Hey, what did the test say about O=C(CCc1nnc2s/c(=C\c3ccccc3)c(=O)n12)Nc1cc(Cl)ccc1Cl ?
inactive

Hey, what did the test say about COc1ccc(N2C(=O)C3c4[nH]c5ccccc5c4C4CC(C)CC(C)C4C3C2=O)cc1 (centres undefined) ?
inactive

Source listed as ChEMBL document CHEMBL1201862.
